- EXPERIMENT_DESCRIPTION: inhibitors of TWEAK-Fn14 signaling, primary screen, luciferase reporter cells, uHTS (AID 1159606)
- STUDY_CONDITIONS: TWEAK-stimulated Fn14 reporter cells, luciferase luminescence, 8 h; at 10 µM; active compounds read high
Screen size: about 360,000 compounds; about 7,300 (2%) were called active. The entries come from a sample that favours actives as a whole.
Label 1 when inhibition >= 20%; otherwise 0.

SMILES_DATA	ANSWER_LABEL
Cc1ccc(OCCCC(=O)Nc2ccc(N3CCOCC3)cc2)cc1	0
COC(=O)CCNc1ccc2c(c1)OCCO2	1
COCCN(C(=O)CC1CCCCC1)c1c(N)n(CC(C)C)c(=O)[nH]c1=O	0
CCOc1ccc(NCCC(=O)c2ccc3c(c2)OCO3)cc1	0
CCCCCC(=O)Nc1ccc(-c2cn3cccnc3n2)cc1	0
Cc1cc(S(=O)(=O)N2CCOCC2)ccc1OCC(=O)N1CCOCC1	0
